System: SK-MEL-5 melanoma
Procedure summary: NCI tumour cell line growth inhibition, 48 h

Compound | Unit descriptor | Bound sign | TGI
CN1CCC(n2cnc(-c3ccc(F)cc3)c2-c2ccnc(NCCO)n2)CC1 | µM | > | 25
CN(C)CCNc1c2c(c(NCCN(C)C)c3[nH]ccc13)C(=O)c1ccccc1C2=O | µM | = | 3.88
COc1ccc(/C(=C2/O[C@@H]([C@H]3COC(C)(C)O3)[C@H]3OC(C)(C)O[C@@H]23)c2cc(OC)c(OC)c(OC)c2)cc1O | µM | = | 15
COC(=O)[C@@]1(C)CC[C@]2(C)CC[C@]3(C)C4=CC=C5C(=CC(=O)C(O)=C5C)[C@]4(C)[C@@H](O)C[C@@]3(C)[C@@H]2C1 | µM | = | 32.6
N#C/C(=C\c1ccc(O)c(O)c1)C(N)=S | µM | > | 100
COc1cc(OC(C)=O)cc2c(OC(C)=O)ccc(OC(C)=O)c12 | µM | > | 100
CCOC(=O)C1=[N+]([O-])OC2=C(O)CCCC21 (stereo not given) | µM | > | 100
O=CC(=C(I)I)c1ccccc1 | µM | = | 14
COc1cccc(-c2c(C#N)c(N)nc3c2CCS(=O)(=O)c2ccc(C)cc2-3)c1 | µM | > | 100
Cc1cc(N(CCCl)CCCl)ccc1C=Nc1ccc(-c2csc(Cc3ccccc3)n2)cc1 | µM | = | 21.2
